Origin of measurements: patent US10781224B2

# System: rice (Diamant variety)
# test_protocol: Rice seed treatment with BHMPA salts: germinating power
# Assay type: in vivo
# run_conditions: rice seeds; solution concentration 1 · 10^−11%
# Method: Experimental versions—soaking seeds in BHMPA solutions and solutions of BHMPA Ca, Mg, Na, Co, Mn, Cu, and Zn salts at 1·10^−6-1·10^−12% concentrations (doses). The studies were conducted in laboratory in Petri dishes; seed bed—two layers of filter paper. […] Seed germination energy and rate were calculated in percent as an arithmetic mean of the four experimental results (germination energy on the 4th day, wheat germination on the 8th day, rice and corn germination—on the 7th day). […]
measurement_type: Mass, dry, sprout (g/100 plantlings)
Write the answer as a number in g/100 plantlings, unit excluded.

The cases that follow already have their Mass, dry, sprout on record.
O=P([O-])(CO)CO.O=P([O-])(CO)CO.[Mg+2] [Mg-salt, Magnesium BHMPA Salt]; 0.44
O.O.O=P([O-])(CO)CO.O=P([O-])(CO)CO.[Co+2] [Co-salt, Cobalt BHMPA Salt]; 0.26
O=P([O-])(CO)CO.[Na+] [Na-salt, Sodium BHMPA Salt]; 0.39
O.O.O=P([O-])(CO)CO.O=P([O-])(CO)CO.[Mn+2] [Mn-salt, Manganese BHMPA Salt]; 0.36

Pending compound:
Data point: O=P([O-])(CO)CO.O=P([O-])(CO)CO.[Ca+2] [Ca-salt, Calcium BHMPA Salt] ; Mass, dry, sprout = 0.27

====

# System: winter wheat (Vershin variety)
# test_protocol: Winter wheat seed treatment with BHMPA salts: germination energy and germination rate
# Assay type: in vivo
# run_conditions: winter wheat Vershin; 1·10^−8% solution
Threshold check on Germination rate: strictly below 90% is rule met; on or above 90% is rule not met.

Answered cases to consult:
O=P([O-])(CO)CO.[Na+] [Na-salt, Sodium BHMPA Salt]; rule not met
O=P([O-])(CO)CO.O=P([O-])(CO)CO.[Zn+2] [Zn-salt, Zinc BHMPA Salt]; rule not met
O=P([O-])(CO)CO.O=P([O-])(CO)CO.[Ca+2] [Ca-salt, Calcium BHMPA Salt]; rule met
O.O.O=P([O-])(CO)CO.O=P([O-])(CO)CO.[Co+2] [Co-salt, Cobalt BHMPA Salt]; rule not met

Lab note: confirm whether the reported Germination rate for this compound is below 90%, equality not counting. compound: O.O.O=P([O-])(CO)CO.O=P([O-])(CO)CO.[Mn+2] [Mn-salt, Manganese BHMPA Salt]
rule met

====

Mass, dry, sprout, + % to control: recorded values
# System: rice (Diamant variety)
# test_protocol: Rice seed treatment with BHMPA salts: germinating power
# Format: in vivo
# run_conditions: rice seeds; solution concentration 1 · 10^−8%
Write the answer as a number in %, unit excluded.

The cases that follow already have their Mass, dry, sprout, + % to control on record.
O.O.O=P([O-])(CO)CO.O=P([O-])(CO)CO.[Co+2] [Co-salt, Cobalt BHMPA Salt]; 55
O.O.O=P([O-])(CO)CO.O=P([O-])(CO)CO.[Mn+2] [Mn-salt, Manganese BHMPA Salt]; 58
O=P([O-])(CO)CO.O=P([O-])(CO)CO.[Mg+2] [Mg-salt, Magnesium BHMPA Salt]; 48
O=P([O-])(CO)CO.O=P([O-])(CO)CO.[Ca+2] [Ca-salt, Calcium BHMPA Salt]; 33

Pending molecule:
// assay rice (Diamant variety), entry O=P([O-])(CO)CO.[Na+] [Na-salt, Sodium BHMPA Salt] , Mass, dry, sprout, + % to control value = 19
